For each of the molecules below, state its GI50.
# System: SN12C renal
# ASSAY_DETAILS: NCI tumour cell line growth inhibition, 48 h

Lab book: GI50 of FC(F)(F)c1cccc2c(SCCc3n[nH]c(=S)o3)ccnc12 noted as 51.4 µM

Consider Clc1ccc(C2CC(c3cccc(Nc4ccncc4)c3)=NN2c2cc(Cl)cc(Cl)c2)cc1 (stereo not given) . Its measured GI50 is 1.73 µM

Measured GI50 of COc1c(Cl)ccc2c(-c3nc4cc(Cl)c(F)cc4s3)cc(=O)oc12 : 23.2 µM

Just so you know, measured GI50 for CCN(CC)CCn1c2ccc(OC)cc2c2sc3cc(OC)ccc3c(=O)c21 came out at 2.03 µM

The molecule listed as Cc1ccc(Nc2cc(C)nc(NCCCNc3ccnc4cc(Cl)ccc34)n2)cc1 shows GI50 equal to 1.49 µM

----------
# Tested on: SR leukemia
# ASSAY_DETAILS: NCI tumour cell line growth inhibition, 48 h; in the data active = GI50 below about 0.43 µM; inactive = the rest
Can you answer with just one of these options? true (1) = active, false (0) = inactive

GET /call?item= NCCCN1CCN(CCCNc2nc3ccccc3c3[nH]c4ccccc4c23)CC1 returns the recorded outcome of this test.
true (1)

Given COc1cccc(N=N/C(=N\NC(=O)c2cc(Br)ccc2O)c2ccc(N(CCC#N)CCC#N)cc2OC)c1 , state the outcome it received in this test.
false (0)

Which outcome did this test record for the compound COC(=O)[C@]12CC[C@@H](C)[C@H](C)[C@@H]1C1=CC[C@@H]3[C@@]4(C)C(C=O)=C[C@@](C)(COS(C)(=O)=O)C4[C@H](O)C[C@@]3(C)[C@]1(C)CC2 (some centres undefined) ?
true (1)

Entry NS(=O)(=O)c1ccc(-n2ncc3c(Nc4ccccc4)ncnc32)cc1 : call = ?
false (0)

Please let me know the test result on file for CCN(CC)CCn1c2ccc(OC)cc2c2sc3cc(OC)ccc3c(=O)c21 .
false (0)

Hi, do you know how O=C1c2ccccc2-c2c1c1ccc([N+](=O)[O-])cc1c(=O)n2CCCNCCO came out in this test?
true (1)

Give the logged outcome of this assay for the following compound: CC1[C@@H]2CC=C3[C@H]4CCC5Cc6nc7c(nc6C[C@@]5(C)C4(O)CC(=O)[C@]32CO[C@]12OC(C)(C)CC2O)CC1CC[C@@H]2C3=C[C@H]4O[C@@]5(O[C@@](C)(CO)C[C@@H]5O)C(C)[C@@]4(O)[C@]3(C)[C@@H](O)CC2[C@]1(C)C7 (some centres undefined)
true (1)

Hello, I am checking results. What call was entered for Nc1c(C(=O)N/N=C/c2ccc(-c3cc(Cl)c(Cl)cc3Cl)o2)cnn1-c1ccnc2c(C(F)(F)F)cccc12 ?
false (0)

GET /call?item= Clc1ccc(C2CC(c3cccc(Nc4ccncc4)c3)=NN2c2cc(Cl)cc(Cl)c2)cc1 (centres undefined) returns the recorded outcome of this test.
false (0)

----------
Provide the reported TGI of each item.
# Test system: LOX IMVI melanoma
# ASSAY_DETAILS: NCI tumour cell line growth inhibition, 48 h

Cc1c(O)c(OC2OC(CO)C(O)C(O)C2O)cc2c1C=C[C@@H]1[C@@]2(C)C(=O)C[C@]2(C)[C@@H]([C@@](C)(O)C(=O)CCC(C)(C)O)[C@H](O)C[C@@]12C (stereo partly specified) tested on LOX IMVI melanoma gave TGI: 59.2 µM

TGI of O=C1/C(=C/c2ccccc2)NC(=S)N1CN1CCCCC1 , assay on LOX IMVI melanoma, is > 100 µM

Query Nc1nccc2c1ncn2C1OC(CO)C(O)C1O (stereo unspecified) on LOX IMVI melanoma; TGI returned: > 100 µM

Known value: LOX IMVI melanoma TGI of the compound C=C1C(OC/C=C/COC2O[C@@H]3O[C@@]4(C)CC[C@H]5[C@H](C)CC[C@@H](C2=C)[C@@]35OO4)O[C@@H]2O[C@@]3(C)CC[C@H]4[C@H](C)CC[C@@H]1[C@@]24OO3 (stereo partly specified) equals 2.09 µM

Entry O=c1cccccc1[O-].O=c1cccccc1[O-].O=c1cccccc1[O-].[Ce+3] under LOX IMVI melanoma had TGI of > 100 µM

Hey, LOX IMVI melanoma data for S=c1sc2cscc2s1 : TGI came out at > 100 µM

Log: LOX IMVI melanoma, compound COc1ccc2c(c1)c(-c1ccc(-c3cn(C)c4ccc(OC)cc34)[nH]1)cn2C , TGI = 4.39 µM

Response field TGI (LOX IMVI melanoma) for item COc1ccc(C2SCC(=O)N2NC(=O)C(C)Oc2ccccc2C)cc1 (stereo unspecified) : > 100 µM

Readout TGI for COC(=O)[C@H](C)NC(=O)[C@@H](OC)[C@@H]1Cc2cc3cc(OC4CC(OC5CC(O)C(O)C(C)O5)C(O)C(C)O4)c(C)c(O)c3c(O)c2C(=O)[C@H]1OC1CC(OC2CC(OC3CC(C)(O)C(O)C(C)O3)C(O)C(C)O2)C(O)C(C)O1 (stereo partly specified) , test system LOX IMVI melanoma, was > 50 µM

Record COc1cc(CCN(C)C)cc(OC)c1OC / LOX IMVI melanoma, TGI recorded as > 100 µM

Given the compound NS(=O)(=O)c1ccc(-n2ncc3c(Nc4ccccc4)ncnc32)cc1 and test system LOX IMVI melanoma, the measured TGI is 70 µM

Recorded values, source PubChem BioAssay (NCI).
